Reference source: ChEMBL document CHEMBL1137833

- TESTED TARGET: Estrogen receptor (Homo sapiens, UniProt Q92731+P03372)
- EXPERIMENTAL PARAMETERS: Cancer cell lines, at 5 µM
- Description: Inhibition of ER-MDA-MB 231 breast cancer cell proliferation over 96 hr at 5 uM
Measured T/C, listed per entry.
ASSAY ENDPOINT: T/C (%)

{"COMPOUND": "CCCCCS(=O)(=O)CCCCCCCCCC/C(=C(/CC)c1ccc(O)cc1)c1cccc(O)c1", "OBSERVED VALUE": 96}
{"COMPOUND": "CCCCCS(=O)(=O)CCCCCCCCCCn1c(-c2ccc(O)cc2)c(C)c2cc(O)ccc21", "OBSERVED VALUE": 84}
{"COMPOUND": "CC/C(=C(/CCCCCCN(C)CCCSCCCC(F)(F)C(F)(F)F)c1ccc(O)cc1)c1ccc(O)cc1", "OBSERVED VALUE": -15}
{"COMPOUND": "C[C@]12CC[C@@H]3c4ccc(O)cc4C[C@@H](CCCCCCCCC[S+]([O-])CCCC(F)(F)C(F)(F)F)[C@H]3[C@@H]1CC[C@@H]2O (some centres undefined)", "OBSERVED VALUE": 93}
